- Tested on: CCRIS mutagenicity, Ames/micronucleus/aberration tests
- ASSAY_OVERVIEW: CCRIS mutagenicity studies
- EXPERIMENTAL_CONTEXT: Test System: AMES SALMONELLA TYPHIMURIUM; Strain/Indicator: TA100; Metabolic Activation: NONE; Method: PREINCUBATION
Activity calls are given as the source filed them. How the calls were made is not given here.
MEASUREMENT_NAME: mutagenic call

# example entries with known answers
> print(dat)
                                    molecule  recorded.measurement
 1  O=c1[nH]c(=O)n([C@H]2C[C@H](O)[C@@H](CO)O2)cc1CCCl    inactive; negative
 2                       CCCCCCCCCCCCCCCCCCN    inactive; negative
 3          O=C(O)c1ccc(S(=O)(=O)N(Cl)Cl)cc1    inactive; negative
 4              BrCC1CO1 (centres undefined)      active; positive
 5  O[C@@H]1[C@H]2O[C@H]2c2c(ccc3cc4ccc5ccccc5c4nc23)[C@H]1O      active; positive
 6      CC1(c2ccccc2)CO1 (centres undefined)      active; positive
 7           Cc1ccc(S(=O)(=O)OC[C@H]2CO2)cc1      active; positive
 8                                 ClCCOCCCl    inactive; negative
 9   COc1cc2oc(-c3ccc(O)cc3)c(O)c(=O)c2cc1OC    inactive; negative
10        CCN(CC)CCCN(c1ccccc1)C1Cc2ccccc2C1    inactive; negative

Could you tell me which mutagenic call is on file for `NCCN1CCNCC1` ?
inactive; negative

Could you tell me which mutagenic call is on file for `O=C(Cl)C(Cl)Cl` ?
active; positive

Could you tell me which mutagenic call is on file for `Cc1cnc(C)cn1` ?
inactive; negative

Could you tell me which mutagenic call is on file for `O=C1C=Cc2c(ccc3cc4ccccc4cc23)C1=O` ?
inactive; negative

---

- Tested on: CCRIS mutagenicity, Ames/micronucleus/aberration tests
- ASSAY_OVERVIEW: CCRIS mutagenicity studies
- EXPERIMENTAL_CONTEXT: Test System: AMES SALMONELLA TYPHIMURIUM; Strain/Indicator: TA100; Metabolic Activation: RAT, LIVER, S-9, AROCLOR 1254; Method: STANDARD PLATE
Activity calls are given as the source filed them. The rule behind the calls is not given here.
Answer with one of the outcomes yes (1) = active, no (0) = inactive

> print(dat)
                                   molecule                           measured.target  discrete.label
1  O=C1c2c(O)ccc3c2[C@H](c2ccc(O)c4c2[C@H]3[C@H]2O[C@H]2C4=O)[C@H]2O[C@@H]12  CCRIS mutagenicity, Ames/micronucleus/aberration tests         yes (1)

How did this test come out for `Cc1ccc2ccc3ccccc3c2c1C` ?
no (0)

How did this test come out for `CCCOc1cc(N=Nc2ccc(N(CCO)CCO)cc2)ccc1N=Nc1c(S(=O)(=O)O)cc2ccc(N)cc2c1O` ?
no (0)

---

- Test system: CCRIS mutagenicity, Ames/micronucleus/aberration tests
- ASSAY_OVERVIEW: CCRIS mutagenicity studies
- EXPERIMENTAL_CONTEXT: Test System: AMES SALMONELLA TYPHIMURIUM; Strain/Indicator: TA98; Metabolic Activation: RAT, LIVER, S-9, AROCLOR 1254; Method: STANDARD PLATE
The source made the active and inactive calls. The rule behind the calls is not given here.
Answer with one of the outcomes yes = active, no = inactive

How did this test come out for `O=Nc1ccc(Sc2ccccc2)cc1` ?
yes
